The following compounds are shown together with reported TGI values.
- Tested on: OVCAR-4 ovarian
- measurement protocol: NCI tumour cell line growth inhibition, 48 h
quantity measured: TGI

[
  {
    "compound": "CC(O)(CCCCCl)c1nc2ccccc2s1 (stereo unspecified)",
    "experimental target": "OVCAR-4 ovarian",
    "result": "> 100 µM"
  },
  {
    "compound": "C[C@]12CC[C@H](OC3OC(O)C(O)C(O)C3O)C=C1CCC1C2CC[C@]2(C)[C@@H](c3ccc(=O)oc3)CC[C@]12O (stereo partly specified)",
    "experimental target": "OVCAR-4 ovarian",
    "result": "0.0167 µM"
  },
  {
    "compound": "O=[N+]([O-])c1nccn1COCCI",
    "experimental target": "OVCAR-4 ovarian",
    "result": "> 100 µM"
  },
  {
    "compound": "COc1ccc(NC(=S)N/N=C/c2c(C)n(C)n(-c3ccccc3)c2=O)cc1",
    "experimental target": "OVCAR-4 ovarian",
    "result": "39.8 µM"
  },
  {
    "compound": "N#Cc1ccc(Sc2ccccc2)cc1C#N",
    "experimental target": "OVCAR-4 ovarian",
    "result": "> 100 µM"
  },
  {
    "compound": "CCC1([N+](=O)[O-])CC2C=CC1C2 (stereo unspecified)",
    "experimental target": "OVCAR-4 ovarian",
    "result": "> 100 µM"
  },
  {
    "compound": "O=c1ccn(C2OC(COC3CCCCO3)C(OC3CCCCO3)C2OC2CCCCO2)c(=O)n1-c1ccccc1 (stereo unspecified)",
    "experimental target": "OVCAR-4 ovarian",
    "result": "> 100 µM"
  },
  {
    "compound": "O=c1[nH]nc(Cc2ccccc2)n1O",
    "experimental target": "OVCAR-4 ovarian",
    "result": "> 100 µM"
  },
  {
    "compound": "COc1cc(OC)cc(C2C(C#N)=C(N)Oc3c2ccc2ccc(O)cc32)c1 (stereo unspecified)",
    "experimental target": "OVCAR-4 ovarian",
    "result": "15.6 µM"
  },
  {
    "compound": "CCCCCCCC/C=C\\CCCCCCC/C=C1/C[C@](/C=C/C(=O)OC)(CO)OC1=O",
    "experimental target": "OVCAR-4 ovarian",
    "result": "16.9 µM"
  },
  {
    "compound": "CCOC(=O)Cn1nc2ccc(Nc3c(C)[n+]([O-])c4cc(F)c(OCC)cc4[n+]3[O-])cc2n1",
    "experimental target": "OVCAR-4 ovarian",
    "result": "> 100 µM"
  }
]
